molecular target: KDR (baculovirus expressed human KDR kinase domain D807-V1356) (Homo sapiens, UniProt P35968); construct: human KDR kinase domain D807-V1356; host or cells: baculovirus expression; assay: biochemical
Sequence (P35968 807-1356): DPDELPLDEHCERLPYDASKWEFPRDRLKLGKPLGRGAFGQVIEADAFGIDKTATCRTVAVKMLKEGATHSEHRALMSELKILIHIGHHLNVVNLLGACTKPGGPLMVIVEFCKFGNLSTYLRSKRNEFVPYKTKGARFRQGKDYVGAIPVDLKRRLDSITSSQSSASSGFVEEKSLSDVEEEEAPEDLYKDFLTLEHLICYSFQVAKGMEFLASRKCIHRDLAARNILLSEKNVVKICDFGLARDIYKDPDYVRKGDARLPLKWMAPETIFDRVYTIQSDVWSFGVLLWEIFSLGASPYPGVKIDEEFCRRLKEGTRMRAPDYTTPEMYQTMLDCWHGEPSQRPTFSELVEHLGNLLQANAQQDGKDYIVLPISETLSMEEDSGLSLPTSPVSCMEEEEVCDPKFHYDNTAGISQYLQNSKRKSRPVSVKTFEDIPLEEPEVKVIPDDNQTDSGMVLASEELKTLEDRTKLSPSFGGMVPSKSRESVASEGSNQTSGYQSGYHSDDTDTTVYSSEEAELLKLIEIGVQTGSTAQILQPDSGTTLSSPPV
pIC50: −log10 of the molar value.
Reported endpoint: pIC50

Compound	Result
COc1cc2nccc(Oc3ncc(NC(=O)C4(C(=O)NCCc5ccccc5)CC4)cc3Cl)c2cc1OC	5.30 to 6.30
COc1cc2c(Oc3ccc(NC(=O)C4(C(=O)Nc5ccc(F)cc5)CC4(C)C)cc3F)ccnc2cc1OCCCN1CCOCC1 (stereo not shown)	> 7.30
COc1cc2ncnc(Oc3ccc(NC(=O)C4(C(=O)Nc5ccc(F)cc5)CC4)cc3F)c2cc1OC	> 7.30
CCN(CC)CCOc1cc2nccc(Oc3ccc(NC(=O)[C@@]4(C(=O)Nc5ccc(F)cc5)[C@H](C)[C@@H]4C)cc3F)c2cc1OC	6.30 to 7.30
CCN(CC)CCOc1cc2ncnc(Oc3ccc(NC(=O)[C@]4(C(=O)Nc5ccc(F)cc5)C[C@H]4C)cc3F)c2cc1OC	> 7.30
COc1cc2c(Oc3ccc(NC(=O)[C@@]4(C(=O)Nc5ccc(F)cc5)[C@H](C)[C@@H]4C)cc3F)ncnc2cc1OCCCN1CCN(C)CC1	> 7.30
COc1cc2nc(SC)cc(Oc3ccc(NC(=O)C4(C(=O)Nc5ccc(F)cc5)CC4)cc3F)c2cc1OC	5.30 to 6.30

###

biological target: c-Met (baculovirus expressed human c-Met kinase domain P948-S1343) (Homo sapiens, UniProt P08581); construct: human c-Met kinase domain P948-S1343; host or cells: baculovirus expression; test: c-Met Luciferase-Coupled Chemiluminescent Kinase assay (LCCA); assay type: biochemical;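 further: kinase activity read as percent ATP left after reaction, by luciferase-luciferin chemiluminescence, with 1 µM ATP and 1 µM poly-EY substrate, 2 h at ambient temperature, 10-point dose-response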
Sequence (P08581 1011-1343 limits assumed): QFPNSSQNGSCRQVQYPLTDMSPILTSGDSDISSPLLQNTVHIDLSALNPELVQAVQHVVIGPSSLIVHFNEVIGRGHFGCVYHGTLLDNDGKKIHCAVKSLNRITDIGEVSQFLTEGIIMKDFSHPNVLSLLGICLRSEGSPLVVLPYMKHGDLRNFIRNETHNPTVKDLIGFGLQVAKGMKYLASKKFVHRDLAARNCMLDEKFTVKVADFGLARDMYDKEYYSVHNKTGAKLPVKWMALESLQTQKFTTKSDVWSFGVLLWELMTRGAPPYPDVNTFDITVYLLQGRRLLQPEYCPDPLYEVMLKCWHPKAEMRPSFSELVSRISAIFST
pIC50: −log10 of the molar value.
Reported endpoint: pIC50

Compound	Result
COc1cc2nccc(Oc3ccc(NC(=O)[C@H](CC(C)C)NCc4ccccc4)cc3)c2cc1OC [Example 119]	5.30 to 6.30
CCCCNC(=O)C(=O)Nc1ccc(Oc2ccnc3cc(OCC4CCNCC4)c(OC)cc23)c(F)c1 [Example 295]	> 7.30
COc1cc2c(Oc3ncc(NC(=O)C4(C(=O)Nc5ccc(F)cc5)CC4)cc3Cl)ccnc2cc1OCC1CCNCC1 [Example 282]	> 7.30
CNc1cc(Oc2ccc(NC(=O)C3(C(=O)Nc4ccc(F)cc4)CC3)cc2F)c2cc(OC)c(OC)cc2n1 [Example 341]	5.30 to 6.30
CCN(CC)CCCOc1cc2ncnc(Oc3ccc(NC(=O)[C@]4(C(=O)Nc5ccc(F)cc5)C[C@H]4C)cc3F)c2cc1OC [Example 386]	> 7.30
COc1cc2nccc(Oc3ncc(NC(=O)C4(C(=O)Nc5ccccc5)CC4)cc3Cl)c2cc1OC [Example 305]	> 7.30
COc1cc2c(Oc3ccc(NC(=O)C4(C(=O)Nc5ccc(F)cc5)[C@H](C)[C@H]4C)cc3F)ncnc2cc1OCCCN1CCOCC1 (stereo partly shown) [Example 383]	> 7.30
COc1cc2nccc(Oc3ccc(NC(=O)C4(C(=O)Nc5ccccc5CN5CCCC5)CC4)cc3)c2cc1OC [Example 395]	6.30 to 7.30
CCN(CC)CCOc1cc2ncnc(Oc3ccc(NC(=O)C4(C(=O)Nc5ccc(F)cc5)[C@H](C)[C@H]4C)cc3F)c2cc1OC (stereo partly shown) [Example 388]	6.30 to 7.30
COc1cc2c(Oc3ccc(NC(=O)C(=O)NCCc4ccccc4)cc3F)ncnc2cc1OCC1C[C@H]2CNC[C@H]2C1 (stereo partly shown) [Example 285]	> 7.30

###

target: KDR (baculovirus expressed human KDR kinase domain D807-V1356) (Homo sapiens); construct: human KDR kinase domain D807-V1356; host or cells: baculovirus expression; experiment: biochemical
pIC50: −log10 of the molar value.
Reported endpoint: pIC50

Compound	Result
COc1cc2nccc(Oc3ncc(NC(=O)C(C)(C)C(=O)Nc4ccc(F)cc4)cc3Cl)c2cc1OC	6.30 to 7.30
COc1cc2c(Oc3ccc(NC(=O)C(=O)NCCN4CCOCC4)cc3F)ccnc2cc1OCC1CCNCC1	> 7.30
COCCNC(=O)C(=O)Nc1ccc(Oc2ccnc3cc(OCC4CCNCC4)c(OC)cc23)c(F)c1	6.30 to 7.30
COc1cc2c(Oc3ccc(NC(=O)[C@]4(C(=O)Nc5ccc(F)cc5)C[C@H]4C)cc3F)ncnc2cc1OCCCN1CCOCC1	> 7.30
CCO/N=C(\C)C(=O)Nc1ccc(Oc2ccnc3cc(OC)c(OC)cc23)cc1	> 7.30
CCN(CC)CCOc1cc2nccc(Oc3ccc(NC(=O)[C@]4(C(=O)Nc5ccc(F)cc5)C[C@@H]4C)cc3F)c2cc1OC	> 7.30
COc1cc2nccc(Oc3cc(Cl)c(NC(=O)C4(C(=O)Nc5ccc(F)cc5)CC4)cc3F)c2cc1OC	6.30 to 7.30

###

target: c-Met (baculovirus expressed human c-Met kinase domain P948-S1343) (Homo sapiens); construct: human c-Met kinase domain P948-S1343; host or cells: baculovirus expression; assay: c-Met Luciferase-Coupled Chemiluminescent Kinase assay (LCCA); type: biochemical; conditions: Table 4, inhibition as IC50 class
pIC50: −log10 of the molar value.

Molecule	pIC50
COc1ccc(CNC(=O)C(=O)Nc2ccc(Oc3ccnc4cc(OCC5CCN(C)CC5)c(OC)cc34)c(F)c2)cc1	> 7.30
COc1cc2c(Oc3ccc(NC(=O)C(=O)Nc4ccc(F)c(Cl)c4)cc3F)ccnc2cc1OCC1CCNCC1	> 7.30
COc1cc2c(Oc3ccc(NC(=O)C(=O)NCc4ccc(OC(F)(F)F)cc4)cc3F)ccnc2cc1OCC1CCNCC1	> 7.30
COc1cc(CNC(=O)C(=O)Nc2ccc(Oc3ccnc4cc(OCC5CCNCC5)c(OC)cc34)c(F)c2)cc(OC)c1	> 7.30
COc1cc2nccc(Oc3ccc(NC(=O)C(=O)NCC(c4ccccc4)N(C)C)cc3F)c2cc1OC (stereo not drawn)	6.30 to 7.30
COc1cc2c(Oc3ccc(NC(=O)C(=O)NCCc4ccc(C)cc4)cc3F)ccnc2cc1OCC1CCNCC1	> 7.30
COc1cc2c(Oc3ccc(NC(=O)C(=O)NCCc4ccccc4)cc3F)ccnc2cc1OCC1CN(C)C1	> 7.30
COc1cc2c(Oc3ccc(NC(=O)C(=O)NCc4cccc(C(F)(F)F)c4F)cc3F)ccnc2cc1OCC1CCNCC1	> 7.30
COc1cc2c(Oc3ccc(NC(=O)C(=O)NCc4cc(C(F)(F)F)ccc4Cl)cc3F)ccnc2cc1OCC1CCNCC1	> 7.30
COc1cc2c(Oc3ccc(NC(=O)C(=O)NCCc4ccccc4)cc3F)ncnc2cc1OCC1CCN(C)CC1	> 7.30
COc1cc2c(Oc3ncc(NC(=O)CC(=O)Nc4ccc(F)cc4)cc3Cl)ccnc2cc1OCCCN1CCCCC1	> 7.30
COc1cc2c(Oc3ncc(NC(=O)CC(=O)Nc4ccc(F)cc4)cc3Cl)ccnc2cc1OCCCN1CCOCC1	> 7.30
COc1cc2c(Oc3ccc(NC(=O)C(=O)NCC(O)c4ccccc4)cc3F)ccnc2cc1OCC1CCNCC1 (stereo not drawn)	6.30 to 7.30
COc1cc2c(Oc3ccc(NC(=O)C(=O)NCC(C)c4ccccc4)cc3F)ccnc2cc1OCC1CCNCC1 (stereo not drawn)	> 7.30
COc1cc2c(Oc3ccc(NC(=O)C(=O)NCCC(C)C)cc3F)ccnc2cc1OCC1CCNCC1	> 7.30

###

biological target: KDR (baculovirus expressed human KDR kinase domain D807-V1356) (Homo sapiens, UniProt P35968); construct: human KDR kinase domain D807-V1356; host or cells: baculovirus expression; experiment: biochemical;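 further: Luciferase-coupled chemiluminescent kinase assay, activity read as percent ATP left after 4 h reaction at ambient temperature, ATP near KM, 10-point dose-response in 384-well plates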
pIC50: −log10 of the molar value.
Measured pIC50, listed per entry.

Molecule	pIC50
COc1cc2nccc(Oc3ccc(NC(=O)C4(C(=O)Nc5ccc(F)cc5)CC4)cc3F)c2cc1OCCCN1CCOCC1	> 7.30
COc1cc2c(Oc3ccc(NC(=O)C(=O)N[C@@H](Cc4ccccc4)C(=O)N4CCCC4)cc3F)ccnc2cc1OCC1CCNCC1	5.30 to 6.30
COc1cc2c(Oc3ccc(NC(=O)C4(C(=O)Nc5ccc(F)cc5)[C@H](C)[C@H]4C)cc3F)ncnc2cc1OCCCN1CCOCC1 (stereo partly drawn)	> 7.30

###

Target: Flt-3 (baculovirus expressed human Flt-3 kinase domain R571-S993) (Homo sapiens, UniProt P36888);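 further: Luciferase-coupled chemiluminescent kinase assay, activity read as percent ATP left after a 3 h reaction at room temperature, ATP near KM, 10-point dose-response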
Construct: human Flt-3 kinase domain R571-S993; host or cells: baculovirus expression
Sequence (P36888 571-993): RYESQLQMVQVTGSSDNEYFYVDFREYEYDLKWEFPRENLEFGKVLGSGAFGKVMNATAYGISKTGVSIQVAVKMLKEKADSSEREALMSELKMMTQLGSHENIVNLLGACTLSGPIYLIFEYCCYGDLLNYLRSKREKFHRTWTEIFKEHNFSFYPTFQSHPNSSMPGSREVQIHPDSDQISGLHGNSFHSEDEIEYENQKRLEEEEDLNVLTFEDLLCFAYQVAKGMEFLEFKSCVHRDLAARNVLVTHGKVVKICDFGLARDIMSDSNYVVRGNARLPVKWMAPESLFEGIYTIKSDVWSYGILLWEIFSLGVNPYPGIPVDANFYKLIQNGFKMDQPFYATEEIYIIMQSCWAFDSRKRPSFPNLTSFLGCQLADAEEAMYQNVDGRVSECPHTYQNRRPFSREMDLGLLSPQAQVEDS
Assay: biochemical
Details: Table 4, inhibition as IC50 class; read-out: flt3 IC50

Compound	IC50
COc1ccc(Br)cc1CCNC(=O)C(=O)Nc1ccc(Oc2ccnc3cc(OCC4CCNCC4)c(OC)cc23)c(F)c1	< 50 nM
COc1cc2c(Oc3ccc(NC(=O)C(=O)NCCc4ccc(Br)cc4)cc3F)ccnc2cc1OCC1CCNCC1	50 to 500 nM
COc1cc2c(Oc3ccc(NC(=O)C(=O)NCCc4ccccc4)cc3F)ncnc2cc1OCC1CCN(C)CC1	< 50 nM
COc1ccc(CCNC(=O)C(=O)Nc2ccc(Oc3ccnc4cc(OCC5CCNCC5)c(OC)cc34)c(F)c2)cc1	50 to 500 nM
COc1cc2c(Oc3ccc(NC(=O)C(=O)NCc4cc(C(F)(F)F)cc(C(F)(F)F)c4)cc3F)ccnc2cc1OCC1CCNCC1	50 to 500 nM
COc1cc2c(Oc3ccc(NC(=O)C(=O)NCCc4ccc(F)cc4)cc3F)ccnc2cc1OCC1CCN(C)CC1	< 50 nM
COc1cc2c(Oc3ccc(NC(=O)C(=O)NCc4ccccn4)cc3F)ccnc2cc1OCC1CCNCC1	50 to 500 nM
